system: P388; test: Antitumor activity against mouse P388 cells allografted in BDF1 mouse assessed as tumor growth inhibition at 200 mg/kg administered as qd for 1 to 9 days relative to control; format: functional
metric name: T/C (%)

>>> test_value("CCOC(=O)Nc1nncs1")
151
>>> test_value("Cc1ccc(S(=O)(=O)NC(=O)Nc2nccs2)cc1")
99
>>> test_value("CCOC(=O)c1ccc(NC(=S)Nc2nccs2)cc1")
92
>>> test_value("O=C(Nc1ccc(C(=O)O)cc1)Nc1nccs1")
163
>>> test_value("CCOC(=O)c1ccc(NC(=O)NC2=NCCS2)cc1")
87
>>> test_value("CNC(=O)Nc1nccs1")
97

====

test system: P388; experiment: Antitumor activity against mouse P388 cells allografted in BDF1 mouse assessed as tumor growth inhibition at 400 mg/kg administered as qd for 1 to 9 days relative to control; format: functional
# T/C per record follows
metric name: T/C (%)

>>> test_value("CCOC(=O)c1ccc(NC(=S)Nc2nccs2)cc1")
92
>>> test_value("CCOC(=O)c1ccc(NC(=O)Nc2nc3ccccc3s2)cc1")
90
>>> test_value("CCOC(=O)c1ccc(NC(=O)NC2=NCCS2)cc1")
92
>>> test_value("O=C(Nc1ccc([N+](=O)[O-])cc1)Nc1nncs1")
142
>>> test_value("CCOC(=O)c1ccc(NC(=O)Nc2nnn[nH]2)cc1")
108
>>> test_value("CCOC(=O)c1ccc(NC(=O)Nc2nc3ccc(OC)cc3s2)cc1")
89
>>> test_value("O=C(Nc1nccs1)C(F)(F)F")
108

====

T/C values for the compounds below.
tested on: P388; assay: Antitumor activity against mouse P388 cells allografted in BDF1 mouse assessed as tumor growth inhibition at 200 mg/kg administered as qd for 1 to 9 days relative to control; assay type: functional
metric name: T/C

>>> test_value("O=C(Nc1ccc([N+](=O)[O-])cc1)Nc1nncs1")
"132%"
>>> test_value("CCOC(=O)Nc1nccs1")
"108%"
>>> test_value("Cc1ccc(NC(=O)Nc2nccs2)cc1")
"105%"
>>> test_value("O=C(CCl)Nc1nncs1")
"100%"
>>> test_value("CCOC(=O)c1ccc(NC(=O)Nc2nc(C)cs2)cc1")
"138%"
>>> test_value("O=C(Nc1ccccc1)Nc1nccs1")
"93%"
>>> test_value("CCOC(=O)c1ccc(NC(=O)Nc2nccs2)cc1")
"162%"
>>> test_value("O=C(Nc1nccs1)C(F)(F)F")
"99%"
>>> test_value("N#Cc1ccc(NC(=O)Nc2nncs2)cc1")
"146%"
>>> test_value("CCOC(=O)c1ccc(NC(=O)Nc2nc3ccc(OC)cc3s2)cc1")
"89%"
>>> test_value("CCOC(=O)c1ccc(NC(=O)Nc2scc[n+]2C)cc1.COS(=O)(=O)[O-]")
"90%"
>>> test_value("CCOC(=O)c1ccc(NC(=O)Nc2nnn[nH]2)cc1")
"100%"
>>> test_value("CCOC(=O)c1ccc(NC(=O)Nc2nc3ccccc3s2)cc1")
"90%"

src = ChEMBL document CHEMBL3227961
